- procedureText: in vitro
- testContext: dog, hepatocytes
readoutKind: CLint scaled (mL/min/kg)
Answer with a number only, understood to be in mL/min/kg.

The compound CCC(CC)c1cc(N[C@H]2CC[C@H](N)C2)n2nccc2n1 [Compound 28] showed CLint scaled equal to 38

###

- procedureText: in vitro
- testContext: rat, hepatocytes
readoutKind: half-life (h)
# number only, unit h dropped from output

half-life recorded for this molecule, `CCC(CC)c1cc(N[C@H]2CC[C@H](N)C2)n2nccc2n1` , is 1.97

###

- procedureText: in vitro
- testContext: rat, hepatocytes
readoutKind: CLint scaled (mL/min/kg)
Express it in mL/min/kg; write the number only.

CLint scaled for `CCC(CC)c1cc(N[C@H]2CC[C@H](N)C2)n2nccc2n1` is 62
